Target: T1, hPRLR.mmh (soluble monomeric human PRLR) (human)
T1 construct: soluble monomeric PRLR protein
T1 chain: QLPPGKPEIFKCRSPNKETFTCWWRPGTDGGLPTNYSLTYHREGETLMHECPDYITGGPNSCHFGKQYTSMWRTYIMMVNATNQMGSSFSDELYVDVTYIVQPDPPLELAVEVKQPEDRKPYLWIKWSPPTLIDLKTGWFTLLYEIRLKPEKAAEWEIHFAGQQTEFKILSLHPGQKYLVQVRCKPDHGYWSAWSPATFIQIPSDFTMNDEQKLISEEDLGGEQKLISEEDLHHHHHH
Assay: SPR (Biacore), antibody capture, 37 C
EXPERIMENTAL_READOUT: kon (M⁻¹ s⁻¹)
One number for each entry, in M⁻¹ s⁻¹.

Before answering, review these 2 worked examples.
What measured kon goes with H1H6967N (antibody, human IgG1, V domains shown, also called H2M6967N) VH: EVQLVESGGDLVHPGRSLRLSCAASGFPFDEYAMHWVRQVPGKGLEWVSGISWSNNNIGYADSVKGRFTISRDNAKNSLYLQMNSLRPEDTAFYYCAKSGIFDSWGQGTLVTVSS VL: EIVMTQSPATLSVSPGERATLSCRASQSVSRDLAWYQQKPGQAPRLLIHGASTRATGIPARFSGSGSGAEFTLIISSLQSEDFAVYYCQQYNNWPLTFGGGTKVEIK ?
424000

Which value of kon has been reported for H1H6785P (antibody, human IgG1, V domains shown, human IgG1 Fc (H1H)) VH: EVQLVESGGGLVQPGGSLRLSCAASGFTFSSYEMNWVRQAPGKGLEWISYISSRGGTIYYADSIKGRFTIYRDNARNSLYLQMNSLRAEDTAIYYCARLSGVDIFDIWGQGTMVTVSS VL: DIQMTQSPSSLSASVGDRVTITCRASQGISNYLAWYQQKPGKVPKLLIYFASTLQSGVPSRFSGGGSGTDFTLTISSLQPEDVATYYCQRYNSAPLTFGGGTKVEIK in the records?
426000

Kindly review the next binder as well.
Can you look up the measured kon of H1H6800P (antibody, human IgG1, V domains shown, human IgG1 Fc (H1H)) VH: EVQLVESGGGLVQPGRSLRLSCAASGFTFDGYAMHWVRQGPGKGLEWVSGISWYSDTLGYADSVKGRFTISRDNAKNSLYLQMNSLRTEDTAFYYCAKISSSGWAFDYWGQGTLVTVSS VL: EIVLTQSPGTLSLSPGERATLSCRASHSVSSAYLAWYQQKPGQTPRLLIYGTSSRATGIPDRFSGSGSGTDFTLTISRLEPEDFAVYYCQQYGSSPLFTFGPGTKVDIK for me?
808000
